Molecular target: Muscarinic M2 receptor (Homo sapiens, UniProt P08172)
Sequence (P08172 1-466): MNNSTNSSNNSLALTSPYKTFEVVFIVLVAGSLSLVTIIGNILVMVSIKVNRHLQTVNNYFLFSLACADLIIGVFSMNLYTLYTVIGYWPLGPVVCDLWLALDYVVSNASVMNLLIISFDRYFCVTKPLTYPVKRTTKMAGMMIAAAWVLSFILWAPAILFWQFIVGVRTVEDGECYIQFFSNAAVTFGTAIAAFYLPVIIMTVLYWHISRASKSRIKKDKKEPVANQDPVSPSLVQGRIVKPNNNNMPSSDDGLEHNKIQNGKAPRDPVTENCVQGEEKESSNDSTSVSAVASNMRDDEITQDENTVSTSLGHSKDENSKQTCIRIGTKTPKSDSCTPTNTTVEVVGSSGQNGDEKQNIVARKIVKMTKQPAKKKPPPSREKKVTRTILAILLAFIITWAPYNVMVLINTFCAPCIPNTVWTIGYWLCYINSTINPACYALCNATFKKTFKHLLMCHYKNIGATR
Kindly state pKi for each of the entries shown.
Answers are plain numbers, as −log10 of the molar value.

Known pKi results, listed for orientation:
O=C(NC1CCN(Cc2ccoc2)CC1)[C@](O)(c1ccccc1)[C@@H]1CCC(F)(F)C1 [Example 12] = 5.07
CC(C)=CCCN1CCC(NC(=O)[C@](O)(c2ccccc2)[C@@H]2CCC(F)(F)C2)CC1 [Example 1] = 5.49
COc1cc(N)cc(CN2CCC(NC(=O)[C@](O)(c3ccccc3)[C@@H]3CCC(F)(F)C3)CC2)c1.Cl.Cl [Example 31, dihydrochloride] = 5.00
COc1cc(N)nc(CN2CCC(NC(=O)[C@](O)(c3ccccc3)[C@@H]3CCC(F)(F)C3)CC2)c1.Cl.Cl [Example 21, dihydrochloride] = 4.30

Would you kindly look at the next entry?
With Muscarinic M2 receptor (Homo sapiens, UniProt P08172) as the test system, provide measured pKi for this compound: O=C(NC1CCN(Cc2ccsc2)CC1)[C@](O)(c1ccccc1)[C@@H]1CCC(F)(F)C1 [Example 11]
6.34

====

target: Muscarinic M3 Receptor (Rattus norvegicus); construct: male rats of the Sprague-Dawley strain; from tissue; host or cells: airways of living male Sprague-Dawley rats (in vivo); experiment: Bronchodilation in rats (i.v.), inhibition of acetylcholine-induced increase in airway resistance; format: in vivo; conditions: iv, 5 min, acetylcholine 50 μg/kg i.v. 5 minutes after test compound, read-out: Inhibition of Airway Contraction ED50 iv
Sequence (P08483 whole entry): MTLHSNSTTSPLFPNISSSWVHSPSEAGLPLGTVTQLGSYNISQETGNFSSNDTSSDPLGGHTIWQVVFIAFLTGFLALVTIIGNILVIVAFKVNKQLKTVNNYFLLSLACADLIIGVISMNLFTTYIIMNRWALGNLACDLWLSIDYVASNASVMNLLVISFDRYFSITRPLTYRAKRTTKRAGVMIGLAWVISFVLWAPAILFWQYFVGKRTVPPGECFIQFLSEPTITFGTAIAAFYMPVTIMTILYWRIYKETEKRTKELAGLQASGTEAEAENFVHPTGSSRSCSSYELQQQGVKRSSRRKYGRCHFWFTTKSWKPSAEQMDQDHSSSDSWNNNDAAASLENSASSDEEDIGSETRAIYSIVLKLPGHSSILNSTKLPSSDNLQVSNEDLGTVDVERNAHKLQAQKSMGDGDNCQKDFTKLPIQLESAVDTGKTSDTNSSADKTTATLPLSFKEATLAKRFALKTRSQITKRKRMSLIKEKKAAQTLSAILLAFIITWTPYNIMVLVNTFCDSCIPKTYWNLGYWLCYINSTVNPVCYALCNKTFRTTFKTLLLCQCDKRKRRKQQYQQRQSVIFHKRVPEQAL
Kindly state ED50 for each of the entries shown.
Answers are plain numbers, in mg/kg.

Known ED50 results, listed for orientation:
Cl.Cl.Nc1cccc(CN2CCC(NC(=O)[C@](O)(c3ccccc3)[C@@H]3CCC(F)(F)C3)CC2)n1 = 0.04
COc1cc(CN2CCC(NC(=O)[C@](O)(c3ccccc3)[C@@H]3CCC(F)(F)C3)CC2)ccc1N = 0.37
CC(C)=CCCN1CCC(NC(=O)[C@](O)(c2ccccc2)[C@@H]2CCC(F)(F)C2)CC1 = 0.033
O=C(NC1CCN(Cc2ccsc2)CC1)[C@](O)(c1ccccc1)[C@@H]1CCC(F)(F)C1 = 0.032

Would you kindly look at the next entry?
Respond only with ED50 recorded for CN1C2CCC1CC(OC(=O)C(CO)c1ccccc1)C2 (centres unmarked) [atoropine, reference compound]
0.0043

Ref: patent US5948792A
